# System: HOP-92 NSCLC
# Protocol: NCI tumour cell line growth inhibition, 48 h
Reported Property: TGI

OC(C/C(=N\N1CCCCC1)c1cccs1)(C(F)(F)F)C(F)(F)F	> 10 µM
COc1cc(Nc2cnc3cc(F)c(F)cc3n2)cc(OC)c1	> 100 µM
O=P([O-])(O)OP(=O)([O-])O.[NH-][C@@H]1CCCC[C@H]1[NH-].[Pt+4]	> 100 µM
O=C(c1cccs1)N(C(=S)N1CCN(c2ccccn2)CC1)C1CCCCC1	> 100 µM
CC(=O)/C(=C\C1=CCCO1)C(=O)Nc1ccccc1C	> 100 µM
CCSC1=N/C(=C\c2ccco2)C(Cl)=N1	> 100 µM
COc1cc(NP(=O)(Oc2ccccc2)Oc2ccccc2)ccc1Nc1c2ccccc2nc2c1[nH]c1ccccc12	3.8 µM
CC1=C(C(=O)NCCc2ccccc2)CC(C(=O)NCCc2ccccc2)=C(C)N1	> 100 µM
CC(=O)OC1COC(n2c(-c3ccc(Cl)cc3)cc(-c3ccccc3)c(C#N)c2=S)C(OC(C)=O)C1OC(C)=O (stereo not given)	28.8 µM
C(=NCc1ccccc1)c1ccccc1-c1ccccc1C=NCc1ccccc1	> 10 µM

* * *

# System: KM12 colon
# Protocol: NCI tumour cell line growth inhibition, 48 h
Reported Property: TGI

COc1cc(C=Nc2ccc(C(C)C)cc2)cc(OC)c1OC	> 100 µM
CCOC(=O)NC(=O)c1cn(CCCOC(=O)CCCCCCCCCCC(=O)OCCCn2cc(C(=O)NC(=O)OCC)c(=O)n(C)c2=O)c(=O)n(C)c1=O	> 100 µM
Cc1cc2cc3c(C)cc(=O)oc3c(C)c2o1	> 100 µM
C[C@H]1C[C@H](C)c2ccccc2N(C)C1=Nc1ccccc1	> 100 µM
Cc1ccc(C(=O)C(Cl)C(Cl)c2ccc(C)cc2)cc1 (centres undefined)	13.9 µM
COc1ccc(-c2c(CN3CCOCC3)sc3nc4ccccc4n23)cc1	> 100 µM
CN(C)CC/C(=N\Nc1ccccc1)c1ccccc1	18.3 µM
C=CCN1C=CC(=O)[C@H](O[Si](C)(C)C(C)(C)C)[C@@H]1/C=C/c1ccccc1	28.7 µM
COc1cc([C@@H]2c3cc4c(cc3C[C@@H]3COC(=O)C32)OCO4)cc(OC)c1O (some centres undefined)	> 100 µM
COC1=C(N2CC2)C(=O)c2nc3n(c2C1=O)CCC3	3.11 µM
COC(=O)c1ccccc1/C=C1\Cc2cc(C)cc(C)c2C1=O	> 100 µM
CN(/N=C/c1ccccn1)C1=NCCCCN1	> 100 µM
CCc1nc(N)nc(C(=O)NCCNC(=O)c2nc(N)nc(CC)c2C)c1C	> 100 µM
Cc1cccc2[s+]snc12	> 100 µM
O=C(O)c1ccc2c(c1)CC1(C2)Cc2ccccc2C1=O (centres undefined)	> 100 µM
O=C1c2ccccc2-c2ccc(N=Nc3c(O)ccc4ccccc34)cc21	> 100 µM
C=C1CC(C)(COc2ccc3ccc(=O)oc3c2)OC1=O (centres undefined)	17.6 µM
O=C1CCC2CCC1C2 (centres undefined)	> 100 µM
O=c1[nH]nc(Cc2ccccc2)n1/N=C/c1ccccc1Cl	> 100 µM
CCCCCCCCC/C=C1\CC(CO)(COC(=O)C2CCCCC2)OC1=O (centres undefined)	38.9 µM
N#Cc1c(Cl)c2ccccc2n2c1nc1ccccc12	> 100 µM
NC1CCCCC1N.O=S(=O)([O-])CCCN1CCOCC1.O=S(=O)([O-])CCCN1CCOCC1.[Pt+4]	> 100 µM
O=C(N/N=C/c1ccccc1Cl)c1ccccc1Nc1ccnc(C(F)(F)F)c1	6.66 µM
CSC1=N/C(=C\c2ccco2)C(=O)N1CN1CCCCC1	> 100 µM

* * *

# Tested on: NCI/ADR-RES ovarian
# Protocol: NCI tumour cell line growth inhibition, 48 h
Where a SMILES comes first, the peptide text is derived from it. [ ]: non-standard residue; d: D form. The star is where a group is joined. ξ: configuration not given here. NMeN = CN[C@@H](CC(N)=O)C(=O)O; NMeV = CN[C@H](C(=O)O)C(C)C; ξNMeV = CNC(C(=O)O)C(C)C; Boc = CC(C)(C)OC(=O)*; ξNMeA = CNC(C)C(=O)O
Reported Property: TGI

COC(=O)c1ccc(N=NN(C)COc2ccc([N+](=O)[O-])cc2)cc1	> 100 µM
CCCCCCCCCCC(O)C1CCC(C(O)CCC(O)C2CCC(CCCCCCC[C@H](O)CC3=C[C@@H](C)OC3=O)O2)O1 (some centres undefined)	8.23 µM
COC(=O)C(C)N(C)C(=O)[C@H](CC(N)=O)N(C)C(=O)[C@@H]1CCCN1C(=O)[C@H](C(C)C)N(C)C(=O)C(C(C)C)N(C)C(=O)[C@@H](NC(=O)OC(C)(C)C)C(C)C (some centres undefined) (Boc-V[ξNMeV][NMeV]P[NMeN][ξNMeA]-OMe)	> 50 µM
CCCCCCCCCCCCC(O)C1CCC(C(O)CCCCCCC(O)CCCCCCCC2=CC(C)OC2=O)O1 (centres undefined)	> 100 µM

* * *

# Tested on: MDA-MB-231 breast
# Protocol: NCI tumour cell line growth inhibition, 48 h
Reported Property: TGI

Cc1occc1C(=S)Nc1ccc(Cl)c(/C=N/OC(C)C)c1	32.6 µM
C(=NCc1ccccc1)c1ccccc1-c1ccccc1C=NCc1ccccc1	> 10 µM
O=C(O)c1ccc2c(c1)CC1(C2)Cc2ccccc2C1=O (centres undefined)	> 100 µM
CC1(C)CCCCCCC2OC2CCCCCC(C)(C)C1=O (centres undefined)	> 100 µM

* * *

Collected TGI values appear next to each entry.
# System: HCT-15 colon
# Protocol: NCI tumour cell line growth inhibition, 48 h
Reported Property: TGI

CC(=O)/C(=C\C1=CCCO1)C(=O)Nc1ccccc1C	> 100 µM
CC[Si](CC)(CC)OC[C@]1([C@@H]2COC(C)(C)O2)CC=CC(=O)O1	> 100 µM
O=C1c2ccccc2C2=Nc3ccncc3CN12	> 100 µM

* * *

# System: SK-MEL-2 melanoma
# Protocol: NCI tumour cell line growth inhibition, 48 h
Collected TGI values appear next to each entry.
Reported Property: TGI (µM)

COC(=O)C1=C(\c2ccccc2)c2ccccc2C(=O)N(C2CCCCC2)/C=C\1	39.2
CCOC(=O)/C(C#N)=C1\c2c([nH]c(=S)[nH]c2=O)Oc2ccc3ccccc3c21	41
O=C(CCc1ccc(O)cc1)NCCc1cccc(OCc2ccccc2)c1	39.1

* * *

Collected TGI values appear next to each entry.
# Tested on: MALME-3M melanoma
# Protocol: NCI tumour cell line growth inhibition, 48 h
Reported Property: TGI

Cc1ccc(S(=O)(=O)NC2C(=O)c3ccccc3C(=O)C2n2cnc3ccccc32)cc1 (stereo not drawn)	1.81 µM
N#Cc1c(Cl)/c(=C/O)c(=O)n2c1nc1ccccc12	> 100 µM
O=c1c2cccnc2cc(-c2ccccc2)n1CCO	> 100 µM

* * *

Collected TGI values appear next to each entry.
# System: CCRF-CEM leukemia
# Protocol: NCI tumour cell line growth inhibition, 48 h
Reported Property: TGI

Cc1cccc2[s+]snc12	> 65.1 µM
COc1cccc2c(Nc3ccc(S(=O)(=O)NC(C)=O)cc3)c3ccc([N+](=O)[O-])cc3nc12	> 100 µM
COC(=O)C12CC3CC(C1)CC(C(=O)OC)(C3)C2	> 100 µM

* * *

# Tested on: SN12C renal
# Protocol: NCI tumour cell line growth inhibition, 48 h
Collected GI50 values appear next to each entry.
Reported Property: GI50

CC/C(=C(/CC)c1ccc(O)cc1)c1ccc([O-])cc1.CC/C(=C(/CC)c1ccc(O)cc1)c1ccc([O-])cc1.O=C([CH-]C(=O)c1ccccc1)c1ccccc1.O=C([CH-]C(=O)c1ccccc1)c1ccccc1.[Ti+4]	14 µM
O=C(Nc1ccc(F)cc1F)c1cc(Br)ccc1O	2.26 µM
COc1ccc2c(c1)OC1=C(C(=O)OC1)C2c1cc(OC)c(OC)c(OC)c1 (stereo unspecified)	0.806 µM
Cc1cc(-c2nnc(N)nc2-c2ccc(F)cc2)cc(Cl)n1	> 100 µM
O=c1[nH]ccc2nc(N3CCC(O)CC3)nc(Nc3cccc(C(F)(F)F)c3)c12	4.07 µM
C=CCN(CC=C)C(=O)c1cc(C)nc2c1c(=O)n(-c1ccccc1)c(=O)n2CC(O)CN1CCN(c2ncccn2)CC1 (stereo unspecified)	> 100 µM

* * *

# Test system: UACC-257 melanoma
# Protocol: NCI tumour cell line growth inhibition, 48 h
Reported Property: TGI

OC(C/C(=N\N1CCCCC1)c1cccs1)(C(F)(F)F)C(F)(F)F	> 10 µM
Cc1ccc(NC(=O)CCC/C(CC(=O)c2ccc(Br)cc2)=N/NC(=O)CC#N)cc1	> 100 µM
CC(=O)Nc1c(C)ccc2c1C(=O)c1ccccc1C2=O	> 100 µM
CCC1=CC2Cc3nc4cc(Cl)ccc4c(N)c3C(C1)C2 (centres undefined)	4.72 µM
CC12CCC(C(=O)N3CC=CCC3)(OC1=O)C2(C)C (centres undefined)	> 100 µM
O=C(c1cccs1)N(C(=S)N1CCN(c2ccccn2)CC1)C1CCCCC1	> 100 µM
COc1ccc(C2=C(c3ccc(OC)c(OC)c3)C(=O)OC2)cc1	> 100 µM
COC(=O)C12CC3CC(C1)CC(C(=O)OC)(C3)C2	> 100 µM
c1cn2cc(-c3ccc4ncn(C5CCCCC5)c4c3)nc(-c3ccc4c(c3)ncn4C3CCCCC3)c2n1	3.62 µM
CC(=O)NC1C(O)C(O)C(CO)OC1n1ncc(=O)[nH]c1=O (centres undefined)	> 100 µM
COC(=O)C1[C@@H](C(=O)OC)C12C=Cc1ccccc1C=C2 (some centres undefined)	> 100 µM
N#Cc1sc2c(c1OC(=O)c1cccs1)c(=O)n(-c1ccccc1)c(=S)n2-c1ccccc1	> 100 µM
COC(=O)C1=C(\c2ccccc2)c2ccccc2C(=O)N(C2CCCCC2)/C=C\1	41.5 µM
COc1c(Cl)c2c(c(OC)c1OC)-c1ccc(SC)c(=O)cc1[C@@H](NC(=O)OCC(F)(F)F)CC2	> 100 µM
Nc1nc(=S)[nH]c(C(=O)Nc2ccc(Cl)c(Cl)c2)c1-c1ccc(Cl)cc1	> 100 µM
COc1ccc2cc3[n+](cc2c1OC)CCc1cc(O)c(O)cc1-3	> 100 µM
CN(C)CCCCN1c2ccccc2Sc2cc(N=[N+]=[N-])ccc21	3.25 µM
CC(=O)/C(=C\C1=CCCO1)C(=O)Nc1ccccc1C	> 100 µM
c1ccc(Nc2nnc(Cn3ccc4ccccc43)s2)cc1	> 100 µM
